src = the supplement of paper PMC9233669

Test system: biotinyl-Val-oxazolone
Test Summary: self-aminoacylation, catalytic enhancement (BVO) (fold over background); higher = more active; k-Seq, kA / k0A0; sequences stand for … in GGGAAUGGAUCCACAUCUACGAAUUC…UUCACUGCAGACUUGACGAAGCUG
Fewer inactive variants are shown than the library holds.
Here, each record is paired with measured self-aminoacylation data.
Please give the numeric answer without any surrounding text.

Solved entries (count: 4):
CAGUUUGCUAAUAAUCGCAAG [Fam3.1 aminoacylation ribozyme variant]    1.03
AAGUUUGUCAAUAGUCGCAAG [Fam3.1 aminoacylation ribozyme variant]    1.78
CCUCACUUCAAGCAAUCUGUC [Fam1B.1 aminoacylation ribozyme variant]    0.515
CUACUUCAAACAAGCGGUCUA [Fam1A.1 aminoacylation ribozyme variant]    0.707

Reported self-aminoacylation for AUUCAACUUGGUCAUCGGGUG [Fam2.2 aminoacylation ribozyme variant] : what is it?
3.29

What does the record list as self-aminoacylation for CCACGCUUCAAGCAAUCGGUG [Fam1B.1 aminoacylation ribozyme variant] ?
2.41

For the sequence CCACUCUUCAAGCAAGCGGUC [Fam1B.1 aminoacylation ribozyme variant] , what self-aminoacylation is on record?
0.97

Which self-aminoacylation value belongs to CUAUUUCAAACAAUCGGGCUG [Fam1A.1 aminoacylation ribozyme variant] ?
1

* * *

System: biotinyl-Trp-oxazolone
Test Summary: self-aminoacylation, catalytic enhancement (BWO) (fold over background); higher = more active; k-Seq, kA / k0A0; sequences stand for … in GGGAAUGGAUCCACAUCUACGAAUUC…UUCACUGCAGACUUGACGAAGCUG
Variants at the floor of the assay were thinned out.
Quick rule for you: self-aminoacylation at 5 or higher means MET, lower means NOT MET.

Given the entry AUGCAUCUAGGUCAUCGGGUG [Fam2.2 aminoacylation ribozyme variant] , answer whether its self-aminoacylation meets or surpasses 5.
MET

Determine whether this sequence has self-aminoacylation no lower than 5: AUUAGCCUGGUCAUCCAGUGA [Fam2.1 aminoacylation ribozyme variant]
MET

Does the reported self-aminoacylation for AUUCACCUAGGUAAUCGGGUU [Fam2.2 aminoacylation ribozyme variant] fall at or above the 5 mark?
NOT MET

Can CCACUCUUCAAGCAAGCGGUC [Fam1B.1 aminoacylation ribozyme variant] be said to have self-aminoacylation at or above 5?
NOT MET

Exam item: decide whether the reported self-aminoacylation for AUUACCCUGGUCAUCGAGUUU [Fam2.1 aminoacylation ribozyme variant] is at least 5.
MET

* * *

Test system: biotinyl-Leu-oxazolone
Test Summary: self-aminoacylation, catalytic enhancement (BLO) (fold over background); higher = more active; k-Seq, kA / k0A0; sequences stand for … in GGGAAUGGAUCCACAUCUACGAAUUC…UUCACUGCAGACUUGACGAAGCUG
Fewer inactive variants are shown than the library holds.
The entries below come with measured self-aminoacylation values attached.
Hey, just send me the number, nothing else.

Sample answers from the record:
AAGUUUUCUAAUAGUCGCAUG [Fam3.1 aminoacylation ribozyme variant]    1.85
CUACUUCAAAAAAUCGGUUUG [Fam1A.1 aminoacylation ribozyme variant]    0.84
AAGCUUGCUAAGAGUCGCAAG [Fam3.1 aminoacylation ribozyme variant]    2.66
AUUACCCUGGCCAUCCAGUGA [Fam2.1 aminoacylation ribozyme variant]    8.23
AUUCACCUAGUGCAUCGGGUG [Fam2.2 aminoacylation ribozyme variant]    2.12

Looking for the measured self-aminoacylation of AUUCACCUACGUCAUCGAGUG [Fam2.2 aminoacylation ribozyme variant] , can you help?
4.08

Would you mind telling me what self-aminoacylation value was observed for ACUCACCUGGGUCAUCGGGUG [Fam2.2 aminoacylation ribozyme variant] ?
5.61

# self-aminoacylation lookup, item AAGUUUGCUAAAAGUCGCAAA [Fam3.1 aminoacylation ribozyme variant]
1.67

So what's the measured self-aminoacylation for this one? AUUCACCUAGGUUAACGGGUG [Fam2.2 aminoacylation ribozyme variant]
3.22

I am curious: what self-aminoacylation value has been reported for AUACUUCAAACAAUUGGUCUG [Fam1A.1 aminoacylation ribozyme variant] ?
0.956

Looking for the measured self-aminoacylation of CCACACUUCAAGCAAUGGGUU [Fam1B.1 aminoacylation ribozyme variant] , can you help?
1.39

I am curious: what self-aminoacylation value has been reported for AUUACCCUGGACAUGGAGUGA [Fam2.1 aminoacylation ribozyme variant] ?
9.2

* * *

Tested on: biotinyl-Leu-oxazolone
Test Summary: self-aminoacylation, catalytic enhancement (BLO) (fold over background); higher = more active; k-Seq, kA / k0A0; sequences stand for … in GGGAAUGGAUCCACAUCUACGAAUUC…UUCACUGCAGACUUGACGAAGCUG
Variants at the floor of the assay were thinned out.
Quantity Measured: self-aminoacylation

Fill in the blank: the reported self-aminoacylation of AUUACCCUGGUCAUCGAGAAA [Fam2.1 aminoacylation ribozyme variant] is ____.
2.97

Can you share its self-aminoacylation? I mean this sequence: AUUCACCCAGGUCAUUGGGUG [Fam2.2 aminoacylation ribozyme variant]
4.11

* * *

Test system: biotinyl-Ile-oxazolone
Test Summary: self-aminoacylation, catalytic enhancement (BIO) (fold over background); higher = more active; k-Seq, kA / k0A0; sequences stand for … in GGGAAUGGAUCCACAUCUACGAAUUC…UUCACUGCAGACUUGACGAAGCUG
Variants at the floor of the assay were thinned out.
Below: a set of entries, each annotated with reported self-aminoacylation.
The response must contain the number and no unit.

Recorded self-aminoacylation, per entry:
AUUACCCUGGUCAUCGAGUGA [Fam2.1 aminoacylation ribozyme variant]    34.6
AUUACCUUGGUCAUCGAGUUA [Fam2.1 aminoacylation ribozyme variant]    1.18
AUUCACCUAGGUCAUGGCGUG [Fam2.2 aminoacylation ribozyme variant]    5.83
AAGUUUGCUAAUAGACGCUAG [Fam3.1 aminoacylation ribozyme variant]    0.547
AUUUCCGUGGUCAUCGAGUGA [Fam2.1 aminoacylation ribozyme variant]    3.67

Write down the reported self-aminoacylation of AUUACCGUGGUAAUCGAGUGA [Fam2.1 aminoacylation ribozyme variant] , test system: biotinyl-Ile-oxazolone.
3.63

Value wanted: self-aminoacylation (biotinyl-Ile-oxazolone) of entry AAUUUUGCUAAUAGUCGCAAA [Fam3.1 aminoacylation ribozyme variant]
3

Kindly state the measured self-aminoacylation obtained for AUUCACCUAGUUCAUCGGGUC [Fam2.2 aminoacylation ribozyme variant] with biotinyl-Ile-oxazolone.
0.996

Which measured self-aminoacylation belongs to UCACACUUCAAGCCAUCGGUC [Fam1B.1 aminoacylation ribozyme variant] , tested on biotinyl-Ile-oxazolone?
1.01

* * *

System: biotinyl-Ile-oxazolone
Test Summary: self-aminoacylation, catalytic enhancement (BIO) (fold over background); higher = more active; k-Seq, kA / k0A0; sequences stand for … in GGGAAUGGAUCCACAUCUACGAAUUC…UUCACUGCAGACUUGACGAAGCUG
Variants at the floor of the assay were thinned out.
Label scheme for self-aminoacylation: lower than 1 is rule not met, 1 and above is rule met.

AUUCAACUCGGUCAUCGGGUG [Fam2.2 aminoacylation ribozyme variant]    rule met
CUGCUUCAAACAAUCGGGCUG [Fam1A.1 aminoacylation ribozyme variant]    rule met
AUUUACCUGGGUCAUCGGGUG [Fam2.2 aminoacylation ribozyme variant]    rule met

Threshold query (self-aminoacylation >= 1) on CUUACCCUGGUCAUCGAGUCA [Fam2.1 aminoacylation ribozyme variant]
rule not met

Check if self-aminoacylation >= 1 (inclusive). Item: AAGUUAGCUAAUAGUCUCAAG [Fam3.1 aminoacylation ribozyme variant]
rule met

Dear colleague, could you confirm whether UUUACCCUGGUCAUCGAGUCA [Fam2.1 aminoacylation ribozyme variant] has self-aminoacylation at or above 1?
rule not met

Answer whether self-aminoacylation of CUACUUCAAACAAUCGAUUUG [Fam1A.1 aminoacylation ribozyme variant] is greater than or equal to 1.
rule not met

Say whether AUUCCCCUGGGUCAUCGGGUG [Fam2.2 aminoacylation ribozyme variant] shows self-aminoacylation of 1 or more.
rule met

For this sequence, is measured self-aminoacylation 1 or higher? ACACACUUCAAGCACUCGGUC [Fam1B.1 aminoacylation ribozyme variant]
rule met

* * *

Tested on: biotinyl-Phe-oxazolone
Test Summary: self-aminoacylation, catalytic enhancement (BFO) (fold over background); higher = more active; k-Seq, kA / k0A0; sequences stand for … in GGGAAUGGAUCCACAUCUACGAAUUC…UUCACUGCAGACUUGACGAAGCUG
Fewer inactive variants are shown than the library holds.
Quantity Measured: self-aminoacylation
Answer with a bare number; do not write a unit.

Record excerpt, results attached:
CCACACUUCCAGCAAUCGUUC [Fam1B.1 aminoacylation ribozyme variant]    1.22
AAGUCUGCUAAUAGACGCAAG [Fam3.1 aminoacylation ribozyme variant]    1.01
CUCCGUCAAACAAUCGGUCUG [Fam1A.1 aminoacylation ribozyme variant]    1.97
AUUCACCUCUGUCAUCGGGUG [Fam2.2 aminoacylation ribozyme variant]    54.5
UUUCACCUGGGUCAUCGGGUG [Fam2.2 aminoacylation ribozyme variant]    24.2
AUUCACCUAGGUCAUGAGGUG [Fam2.2 aminoacylation ribozyme variant]    3.32

# input sequence: CUACUUAAAACACUCGGUCUG [Fam1A.1 aminoacylation ribozyme variant] ; wanted: its self-aminoacylation
0.731

Recorded self-aminoacylation of AUAACCCUGGUCUUCGAGUGA [Fam2.1 aminoacylation ribozyme variant] , please.
17.7

Any idea what self-aminoacylation was measured for AUUACCCUGGUGUUCGAGUGA [Fam2.1 aminoacylation ribozyme variant] ?
45.5
